Tested on: carrageenin-induced rat paw edema
Assay: Inhibition of the carrageenin-induced rat paw edema
Format: in vivo, Fisher 344 rats
Details: 0.0057 mmol/Kg body weight, intraperitoneally, 3.5 h after carrageenin
Marks after values point to notes of the source that are not given here.
readout.kind: CPE % (reduction in the rat paw edema induced by carrageenin)

Brc1ccc(COc2ccc(C3CC(c4ccccc4)=NN3)cc2)cc1 (stereo not shown); 63.0 ** %
CC(=O)n1nc(-c2ccccc2)cc1-c1cccc(Oc2ccccc2)c1; 16.0 * %
CC(=O)n1nc(-c2ccccc2)cc1-c1ccc2[nH]ccc2c1; 30.0 * %
Clc1ccc(C2=NNC(c3ccc4[nH]ccc4c3)C2)cc1 (stereo not shown); 27.0 * %
c1ccc(C2=NNC(c3cccc4ccccc34)C2)cc1 (stereo not shown); no
CC(=O)n1nc(-c2ccc(Cl)cc2)cc1-c1cccc2ccccc12; 33.0 * %

Then there is this compound:
Form field: CPE % (reduction in the rat paw edema induced by carrageenin) recorded for COc1ccc2c(c1)c(CC(=O)O)c(C)n2C(=O)c1ccc(Cl)cc1 [Indomethacin, reference compound] with carrageenin-induced rat paw edema (enter value) 47 ** %

---

Could you please report measured RA% 200 µM 20 min for the items listed next?
Experiment: Reducing activity of the stable radical DPPH
Type: biochemical
Details: 200 µM, 20 min
Answers are plain numbers, in %.

Example entries and their recorded answers appear below.
c1ccc(C2=NNC(c3cccc4ccccc34)C2)cc1 (centres unmarked) [Compound 2a]; 37.2
Clc1ccc(C2=NNC(c3ccc4[nH]ccc4c3)C2)cc1 (centres unmarked) [Compound 2b]; 34.9
CC(=O)n1nc(-c2ccc(Cl)cc2)cc1-c1cccc2ccccc12 [Compound 2g]; 22.5

State recorded RA% 200 µM 20 min for all listed compounds.
1. Brc1ccc(COc2ccc(C3CC(c4ccccc4)=NN3)cc2)cc1 (centres unmarked) [Compound 2d]
2. CC(=O)n1nc(-c2ccccc2)cc1-c1cccc(Oc2ccccc2)c1 [Compound 2h]

1. 9.4
2. 17.2

---

Test: Reducing activity of the stable radical DPPH
Assay type: biochemical
Conditions: 50 µM, 60 min
readout.kind: RA% 50 µM 60 min (%)
Numbers only, in %.

CC(=O)n1nc(-c2ccccc2)cc1-c1ccc2[nH]ccc2c1; 24.7

State recorded RA% 50 µM 60 min for all listed compounds.
1. CC(Cc1ccc(O)c(O)c1)C(C)Cc1ccc(O)c(O)c1 (stereo not drawn) [NDGA, Nordihydroguaretic acid, reference compound]
2. Clc1ccc(C2=NNC(c3ccc4[nH]ccc4c3)C2)cc1 (stereo not drawn)

[83, 25.0]
